Reported values of Metabolic Stability Percent Remaining for individual entries
- protocol-summary: Metabolic stability
- Format: in vitro ADME

compound | Metabolic Stability Percent Remaining / %
CC(=O)O[C@H](C)CCCCn1ccc2cc(Br)ccc21 | 0
C[C@@H](O)CCCCn1ccc2cc(Br)ccc21 | 0
C[C@@H](O)CCCCN1c2ccccc2Oc2ccccc21 | 19
CC(O)CCCCN1C(=O)C(C)N(CCCCC(C)O)C(=O)C1C (mixture of isomers) | 77
CC(=O)O[C@H](C)CCCCn1[nH]c(=O)n(-c2ccccc2)c1=O | 45
C[C@@H](O)CCCCOc1nn(CCCC[C@@H](C)O)c(=O)c2ccccc12 | 38
C[C@@H](O)CCCCn1[nH]c(=O)n(-c2ccccc2)c1=O | 106
C[C@@H](O)CCCCOc1n[nH]c(=O)c2ccccc12 | 75
